Test system: Staphilococcus aureus Tour
Test: MIC by broth microdilution, Staphylococcus aureus Tour
Assay type: cell-based
Conditions: Table 2, internal code 165, inoculum 10^6 cfu/ml, Iso-Sensitest broth, 37° C., 20-24 h, air

{"columns": ["molecule", "units symbol", "MIC"],
 "data": [
  ["COC(=O)c1cc2cc3c(c(O)c2c(=O)o1)OC1(Cc2c(O)c4c(c(O)c2O1)C(=O)C(NCC#N)=CC4=O)CC3O (stereo not shown)", "mg/L", 0.13],
  ["CNC1=CC(=O)c2c(O)c3c(c(O)c2C1=O)OC1(CCc2cc4cc(C(=O)OC)oc(=O)c4c(O)c2O1)C3 (stereo not shown)", "mg/L", 0.03],
  ["COC(=O)c1cc2cc3c(c(O)c2c(=O)o1)OC1(Cc2c(O)c4c(c(O)c2O1)C(=O)C(NCC(F)(F)F)=CC4=O)CC3O (stereo not shown)", "mg/L", 0.03],
  ["COC(=O)c1cc2cc3c(c(O)c2c(=O)o1)OC1(Cc2c(O)c4c(c(O)c2O1)C(=O)C(NCc1ccccc1)=CC4=O)CC3O (stereo not shown)", "mg/L", 1],
  ["COC(=O)c1cc2cc3c(c(O)c2c(=O)o1)OC1(Cc2c(O)c4c(c(O)c2O1)C(=O)C(N)=CC4=O)CC3O (stereo not shown)", "mg/L", 0.06],
  ["COC(=O)c1cc2cc3c(c(O)c2c(=O)o1)OC1(Cc2c(O)c4c(c(O)c2O1)C(=O)C(NCCO)=CC4=O)CC3O (stereo not shown) [Example 21, 7'-(2-hydroxyethylen)-amino purpuromycin]", "mg/L", 0.13],
  ["COC(=O)c1cc2cc3c(c(O)c2c(=O)o1)OC1(Cc2c(O)c4c(c(O)c2O1)C(=O)C(NCCN)=CC4=O)CC3O (stereo not shown)", "mg/L", 1],
  ["CCNC1=CC(=O)c2c(O)c3c(c(O)c2C1=O)OC1(C3)CC(O)c2cc3cc(C(=O)OC)oc(=O)c3c(O)c2O1 (stereo not shown)", "mg/L", 0.06],
  ["CCCNC1=CC(=O)c2c(O)c3c(c(O)c2C1=O)OC1(C3)CC(O)c2cc3cc(C(=O)OC)oc(=O)c3c(O)c2O1 (stereo not shown)", "mg/L", 0.03],
  ["COC(=O)c1cc2cc3c(c(O)c2c(=O)o1)OC1(Cc2c(O)c4c(c(O)c2O1)C(=O)C(NCCNC(=O)OC(C)(C)C)=CC4=O)CC3O (stereo not shown)", "mg/L", 0.13]
]}

Data origin: patent US5475010A
